target: BCL2 D111A (Homo sapiens, UniProt P10415, D111A)
protocol-text: TR-FRET competitive binding assay, BCL2 D111A
settings: Ki determined from IC50, read-out: TR_FRET EKI_Bcl2 D111A
Measured pKi values are reported for all entries that follow.
Please keep in mind that pKi is minus log10 of the molar concentration; only the number is needed.

compound: Cc1c(N(C(=O)c2cc(-c3cc4c(cc3C(=O)N3Cc5ccccc5C[C@H]3C)CN(C(=O)Cc3ccc(OCCN5CCOCC5)cc3)CC4)n(C)c2C)c2ccccc2)cc(C#N)n1C [Example 236]
pKi: 9.88
//
compound: Cc1c(C(=O)N(c2ccc(O)cc2)c2cc(C#N)n(C(F)F)c2C)cc(-c2cc3c(cc2C(=O)N2Cc4ccccc4C[C@H]2CN2CCCCC2)CN(C(=O)Cc2ccc(OCCN4CCOCC4)cc2)CC3)n1C [Example 77]
pKi: 9.70
//
compound: Cc1c(N(C(=O)c2cc(-c3cc4c(cc3C(=O)N3Cc5ccccc5C[C@H]3CN3CCCC[C@H]3C)CN(C(=O)Cc3ccc(OCCN5CCOCC5)cc3F)CC4)n(C)c2C)c2ccc(O)cc2)cc(C#N)n1C [Example 123]
pKi: 9.89
//
compound: Cc1c(N(C(=O)c2cc(-c3cc4c(cc3C(=O)N3Cc5ccccc5C[C@H]3C)CN(C(=O)Cc3ccc(OCCC5CCOCC5)cc3)CC4)n(C)c2C)c2ccc(O)cc2)cc(C#N)n1C [Example 27]
pKi: 8.78

In: Fill in pKi for record Cc1c(N(C(=O)c2cc(-c3cc4c(cc3C(=O)N3Cc5ccccc5C[C@H]3CN3CCOCC3)CN(C(=O)Cc3ccc(OCCC5CCOCC5)cc3F)CC4)n(C)c2C)c2ccc(O)cc2)cc(C#N)n1C [Example 54]
Out: 9.40
